- condition details: in isopropanol, 313.15 K
metric name: solubility (mole fraction)

## Task Need solubility (mole fraction) of CCOc1ccc(C=O)cc1O , thanks.
## Result 0.0168

###

- condition details: in ethyl acetate, 318.15 K
metric name: solubility (mole fraction)
Reply briefly: the number, and no unit.

## Task Need solubility (mole fraction) of CCOc1ccc(C=O)cc1O , thanks.
## Result 0.0511

###

- condition details: in ethyl formate, 288.15 K
metric name: solubility (mole fraction)
Reply briefly: the number, and no unit.

## Task Need solubility (mole fraction) of CCOc1ccc(C=O)cc1O , thanks.
## Result 0.0172

###

- condition details: in isopropyl acetate, 283.15 K
metric name: solubility (mole fraction)
Reply briefly: the number, and no unit.

## Task Need solubility (mole fraction) of CCOc1ccc(C=O)cc1O , thanks.
## Result 0.013

###

- condition details: in ethyl formate, 298.15 K
metric name: solubility (mole fraction)

## Task Need solubility (mole fraction) of CCOc1ccc(C=O)cc1O , thanks.
## Result 0.0236

###

- condition details: in toluene, 308.15 K
metric name: solubility (mole fraction)
Reply briefly: the number, and no unit.

## Task Need solubility (mole fraction) of CCOc1ccc(C=O)cc1O , thanks.
## Result 0.0068

###

- condition details: in ethanol, 318.15 K
metric name: solubility (mole fraction)
Reply briefly: the number, and no unit.

## Task Need solubility (mole fraction) of CCOc1ccc(C=O)cc1O , thanks.
## Result 0.0276
